# Tested Target: lysozyme (Gallus gallus, UniProt P00698)
# Sequence (P00698 19-147): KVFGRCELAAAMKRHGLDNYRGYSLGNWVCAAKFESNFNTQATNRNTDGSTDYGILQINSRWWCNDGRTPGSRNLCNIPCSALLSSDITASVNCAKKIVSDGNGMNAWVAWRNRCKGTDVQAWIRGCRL
# Method Summary: Filter binding assay with lysozyme
# Set-up: species or system hen
# Reported Conditions: read-out: Kd of anti-lysozyme aptamer
pKd: −log10 of the molar value.
Quantity Name: pKd

INSERT INTO assay_data (substance, quantity_name, recorded_value) VALUES
  ('cl: high affinity anti-lysozyme aptamer, SEQ ID NO:13 (GCGACTGGACATCACGAG; chemistry not given here)', 'pKd', 7.51);
